- Tested on: ACHN renal
- PROTOCOL_DESCRIPTION: NCI-60 one-dose screen, 48 h
- CONDITION_NOTES: 10 µM unless noted
This is part of a sample that, as a whole, favours compounds with a hit. Of some 83,000 tested, about 20% had one in any assay. The source made the active and inactive calls. Rule for the calls: active = growth percent below 10; inactive = the rest.
Classes used: yes (active), no (inactive)

MOLECULE	QUALITATIVE_LABEL
COc1cc(OC)c(/C=C/C(=O)c2c(O)cc(OC)c(C3CCN(C)CC3)c2OC)c(OC)c1	yes
CCN(CC)c1ccc(CNc2cc(C)nc3ccccc23)cc1	no
Cc1ccc2c(-n3nc(C#N)c(C#N)c3N)cc(=O)[nH]c2c1	no
N#Cc1ccc(O)c(C2=NCC(Cc3ccccc3)O2)c1 (stereo not given)	no
Cc1cn(-c2cc(NC(=O)c3cncc(C#Cc4c(N)ncc5ccc(F)cc45)c3)cc(C(F)(F)F)c2)cn1	no
O=C(O)c1ccc(-c2ccc(/C=N/Nc3nc(Nc4ccccc4)nc(N4CCCCC4)n3)o2)cc1	no
COC1=C(C)C(=O)N2[C@@H]1[C@H](c1ccccc1)OC21C=CC(=O)C=C1	yes
Cc1ccc(-c2nc(-c3cn(C)c4ncccc34)cs2)cc1	yes
CCN(CC)CCN1C(=O)c2c(c(C)c3c(oc4ccc(OC)cc43)c2C)C1=O	yes
CCN1C2CCC1/C(=C\c1ccc(F)cc1)C(=O)/C2=C/c1ccc(F)cc1	no

====

- System: HOP-62 NSCLC
- PROTOCOL_DESCRIPTION: NCI-60 one-dose screen, 48 h (100 = growth as untreated, 0 = no growth, -100 = all killed)
- CONDITION_NOTES: 10 µM unless noted
- Procedure: Growth inhibition of the HOP-62 human Non-Small Cell Lung tumor cell line is measured as a screen for anti-cancer activity. Cells are grown in 96 well plates and exposed to the test compound for 48 hours. Compounds are tested at a single concentration, which is 10^-5 M for most compounds. The reported endpoint is percent growth (GI% or GIPRCNT), where numbers from 0 - 100% represent growth inhibition, and numbers from -100% - 0 represent cell death. […]
About 83,000 compounds went through this panel and 20% of them were active in at least one assay; those are over-represented in the sample as a whole.
Reported growth values are given for each entry in this list.

MOLECULE_SMILES	growth (%)
COc1ccc(/C=C/c2c(C(=O)/C=C/c3ccccc3)c(C)nc3ccccc23)cc1	-13.9
COc1cc(/C=C2\CN(S(=O)(=O)c3ccccc3)C/C(=C\c3cc(CN4CCCCC4)c(O)c(OC)c3)C2=O)cc(CN2CCCCC2)c1O	104
COc1cc(-c2nc3c(ncc4ccc(=O)n(-c5ccccc5)c43)s2)cc(OC)c1OC	88.6
CS(=O)(=O)c1ccc(NC(=O)c2ccccc2)nc1	95.6
COc1ccc(-c2nc3c(N)c(CO)cnc3s2)cc1	100
O=C(O)c1cn(C2CC2)c2cc(N3CCN(C(=O)Nc4nc(-c5ccc(Br)cc5)cs4)CC3)c(F)cc2c1=O	21.8
CC(=O)OC[C@]12CC[C@@H]([C@@H](C)c3nnc(-c4ccncc4)o3)[C@@H]1[C@H]1CC[C@@H]3[C@@]4(C)CC[C@H](OC(C)=O)C(C)(C)[C@@H]4CC[C@@]3(C)[C@]1(C)CC2	98.4
O=C1Nc2c(C(=O)O)cccc2/C1=N/c1n[nH]c(=S)s1	79.7
CCOC(=O)c1cc(C(=O)c2cc(OC)c(OC)c(OC)c2)n2ccccc12	28.3
CN1CCN(CCCOc2cccc3nc(Nc4ccc(F)c(F)c4)ccc23)CC1	5.44
C[n+]1ccc(CCc2c[nH]c3ccccc23)cc1	69.3
O=S(=O)(Oc1ccc(Br)cc1)c1ccc(Cl)cc1	105
O=S(=O)(Nc1cc(Sc2cccc3cccnc23)c(O)c2ccccc12)c1ccccc1	47.3
C=C(C)[C@@H]1CCC[C@]2(C(=O)N3CCN(C)CC3)CC[C@]3(C)[C@@H](CC[C@@H]4[C@@]5(C)CC/C(=N\NC(=O)c6ccncc6)C(C)(C)[C@@H]5CC[C@]43C)[C@@H]12	96.9
Cc1cccc(-c2nc(Nc3ccc4ncsc4c3)c3ccccc3n2)n1	80.2
COC(=O)CC[C@@H]1O[C@@H](c2ccc(F)cc2)[C@@H](O)[C@H]1O	104
CC(=O)/C(=C/c1ccc([N+](=O)[O-])cc1)C(=O)c1ccccc1	79.8
COc1ccc(C(=S)N2CCN(c3ccc(Cl)cc3)CC2)cc1	97.8
Cc1ccc2c(=O)cc(C(=O)Nc3sc4c(c3C(=O)NCc3cccnc3)CCCC4)oc2c1C	104

====

- Tested on: UACC-62 melanoma
- PROTOCOL_DESCRIPTION: NCI-60 one-dose screen, 48 h (100 = growth as untreated, 0 = no growth, -100 = all killed)
- CONDITION_NOTES: 10 µM unless noted
This is part of a sample that, as a whole, favours compounds with a hit. Of some 83,000 tested, about 20% had one in any assay.
ASSAY_METRIC: growth (%)

MOLECULE_SMILES	VALUE_OBSERVED
O=C(N=Nc1c(O)[nH]c2ccccc12)Nc1ccc(F)cc1	79.3
COc1ccc(Nc2ncccc2/C=C/C(=O)c2cc(OC)c(OC)c(OC)c2)cc1	-24
COc1ccc(NC(=O)Nc2ccc(OCCCCCC(=O)NO)cc2)cc1	89.4
CN1CCN(CCOc2ccc(-c3cnc4c(-c5cccc(F)c5F)cnn4c3)cc2)CC1	-36.1
O=C1c2ccccc2C(=O)C1c1ccc(Br)cc1	98.3
N#Cc1c(-c2ccccc2)nc(SCc2nnc(-c3ccc(Cl)cc3)o2)[nH]c1=O	98.5

====

- System: OVCAR-3 ovarian
- PROTOCOL_DESCRIPTION: NCI-60 one-dose screen, 48 h (100 = growth as untreated, 0 = no growth, -100 = all killed)
- CONDITION_NOTES: 10 µM unless noted
Compounds without any hit were thinned out: in the full panel of roughly 83,000, 20% have a hit.
The label true (1) is reserved for growth strictly under 60%; false (0) covers values equal to or above it.

MOLECULE	QUALITATIVE_LABEL
CCOC(=O)/C=C1\S/C(=N\Nc2cc(=O)[nH]c3ccccc23)N(c2ccccc2)C1=O	false (0)
NC1(CO)COC(c2ccccc2)OC1 (stereo not given)	false (0)
Nc1nc(NC(=O)Nc2ccc(C(=O)O)cc2)nn1-c1ccc(S(N)(=O)=O)cc1	false (0)
CC/C=C\C[C@H](O)C/C=C1/C(=O)C=C[C@@H]1C/C=C\CCCC(=O)O	true (1)
CCN1C(=O)N(CC)C2C1N=C(SCc1ccc(Cl)cc1)N2/N=C/C=C/c1ccccc1OC (stereo not given)	true (1)
CCOC(=O)C(=CNc1cnc(Nc2ccc(N3CCOCC3)cc2)nc1Oc1ccc(OC)cc1)C(=O)OCC	true (1)
COC(=O)c1c2c(n3ccccc13)C(=O)c1ccccc1C2=O	true (1)
CN(CCCNC(=O)Cc1ccc2ccc3cccc4ccc1c2c34)CCCNc1cc(-c2ccc3ccccc3c2)nc2ccccc12	true (1)
NS(=O)(=O)c1ccc(C(=O)NN2C(=O)c3c(Br)c(Br)c(Br)c(Br)c3C2=O)cc1	false (0)
O=C1Nc2ccccc2/C1=C/c1cccn1C(=O)c1ccc(Cl)s1	true (1)

====

- System: UACC-257 melanoma
- PROTOCOL_DESCRIPTION: NCI-60 one-dose screen, 48 h (100 = growth as untreated, 0 = no growth, -100 = all killed)
- CONDITION_NOTES: 10 µM unless noted
The panel holds about 83,000 compounds, 20% with a hit somewhere; the sample as a whole holds those more often. Calls of active or inactive are those of the source. Rule for the calls: active = growth percent below 10; inactive = the rest.
// values below are reported growth

COMPOUND	EXPERIMENTAL_SYSTEM	growth
Cc1ccc(/C=C/C(=O)c2cccc(OCCCOc3cccc(C(=O)/C=C/c4ccc(C)cc4)c3)c2)cc1	UACC-257 melanoma	96.4% (inactive)
Cc1[nH]c(C2CC(c3ccc(C(F)(F)F)c(F)c3)=NN2c2ccccc2)c(C)c1C(=O)NCC(F)(F)F (centres undefined)	UACC-257 melanoma	97.6% (inactive)
COc1ccc(C[n+]2c3ccccc3n3c4ccc(N)cc4ccc32)c(OC)c1OC	UACC-257 melanoma	3.35% (active)
CC1(C)C(N)=Nc2cc(OCCCN3Cc4ccccc4C3)c(OCC3CC3)cc21	UACC-257 melanoma	1.23% (active)
CCOC(=O)c1nn(CC(O)c2ccccc2)c(NC(=O)Nc2cccc(F)c2)c1C (centres undefined)	UACC-257 melanoma	86.8% (inactive)
O=C(CCSc1nnc2n(Cc3ccccc3)c(=O)c3c4c(sc3n12)CCCC4)N1CCN(c2ccccc2)CC1	UACC-257 melanoma	101% (inactive)
CC1CCN(C(=S)SCC(=O)NC(=O)c2ccccc2)CC1	UACC-257 melanoma	102% (inactive)
CC1(C)NCCC[C@]2(C)[C@H]3CC[C@H]4[C@H]5[C@H](C(=O)/C=C/c6cccnc6)CCC[C@]5(CO)CC[C@@]4(C)[C@]3(C)CC[C@@H]12	UACC-257 melanoma	86.5% (inactive)
CCC1S/C(=N\N=C(\C)c2cc3cc(Cl)ccc3o2)N(c2ccccc2)C1=O (centres undefined)	UACC-257 melanoma	154% (inactive)
